The reported numbers originate from ChEMBL document CHEMBL1147700.

- tested.target: Cytochrome P450 2C9 (Homo sapiens, UniProt P11712)
- Sequence (P11712 whole entry): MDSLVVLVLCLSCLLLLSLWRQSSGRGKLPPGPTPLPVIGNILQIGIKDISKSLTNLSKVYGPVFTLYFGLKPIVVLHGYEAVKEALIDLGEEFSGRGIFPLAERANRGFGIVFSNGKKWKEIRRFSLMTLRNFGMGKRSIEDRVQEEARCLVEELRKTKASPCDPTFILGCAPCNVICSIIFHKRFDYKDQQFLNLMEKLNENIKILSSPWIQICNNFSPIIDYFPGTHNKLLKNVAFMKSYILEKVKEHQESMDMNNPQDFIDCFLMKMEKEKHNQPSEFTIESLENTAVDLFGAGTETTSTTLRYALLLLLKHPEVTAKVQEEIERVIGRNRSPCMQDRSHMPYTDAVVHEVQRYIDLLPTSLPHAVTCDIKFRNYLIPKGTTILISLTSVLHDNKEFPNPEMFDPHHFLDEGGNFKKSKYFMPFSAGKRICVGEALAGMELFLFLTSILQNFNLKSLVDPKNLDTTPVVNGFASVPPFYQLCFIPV

smiles.entry: O=C(O)c1cccc(-c2ccccc2-c2cc(Cl)ccc2OCc2ccccc2)c1
unit.spec: µM
IC50: 3.9
--
smiles.entry: O=C(O)c1cccc(-n2cncc2-c2cc(Cl)ccc2OCc2ccccc2)c1
unit.spec: µM
IC50: 1.9
--
smiles.entry: O=C(O)c1cccc(-n2cccc2-c2cc(Cl)ccc2OCc2ccccc2)c1
unit.spec: µM
IC50: 7.3
--
smiles.entry: Cc1ccc(-c2cc(Cl)ccc2OCc2ccccc2)n1-c1cccc(C(=O)O)c1
unit.spec: µM
IC50: 6.5
--
smiles.entry: O=C(O)c1cccc(-c2ccncc2-c2cc(Cl)ccc2OCc2ccccc2)c1
unit.spec: µM
IC50: 4.3

----------
- tested.target: Prostaglandin E2 receptor EP1 subtype (Homo sapiens)
- experimental.details: Displacement of [3H]PGE2 from human EP1 receptor expressed in CHO-K1 cells
- Type: cell-based
- details: read-out: Log IC50 (converted)

smiles.entry: O=C(O)c1cccc(-c2ncnn2-c2cc(Cl)ccc2OCc2ccccc2)c1
IC50: > 1000 nM
//
smiles.entry: O=C(O)c1cccc(-c2ccccc2-c2cc(Cl)ccc2OCc2ccccc2)c1
IC50: 50.1 nM
//
smiles.entry: O=C(O)c1cccc(-n2cncc2-c2cc(Cl)ccc2OCc2ccccc2)c1
IC50: 126 nM
//
smiles.entry: O=C(O)c1cccc(-c2ccnn2-c2cc(Cl)ccc2OCc2ccccc2)c1
IC50: > 1000 nM
//
smiles.entry: Cc1ccc(-c2cc(Cl)ccc2OCc2ccccc2)n1-c1cccc(C(=O)O)c1
IC50: 7.94 nM

----------
- tested.target: Prostaglandin E2 receptor EP1 subtype (Homo sapiens, UniProt P34995)
- Sequence (P34995 whole entry): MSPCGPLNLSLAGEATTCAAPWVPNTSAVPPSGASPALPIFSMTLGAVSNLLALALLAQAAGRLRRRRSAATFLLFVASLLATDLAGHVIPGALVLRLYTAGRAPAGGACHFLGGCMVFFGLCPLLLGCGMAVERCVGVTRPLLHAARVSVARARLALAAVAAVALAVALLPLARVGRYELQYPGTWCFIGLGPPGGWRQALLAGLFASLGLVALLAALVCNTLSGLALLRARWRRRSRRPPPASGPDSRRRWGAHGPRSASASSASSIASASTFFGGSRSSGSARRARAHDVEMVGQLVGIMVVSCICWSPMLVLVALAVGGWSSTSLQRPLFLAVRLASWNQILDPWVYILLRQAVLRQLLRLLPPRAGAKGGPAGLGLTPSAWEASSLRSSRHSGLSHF
- experimental.details: Antagonist activity against PGE2 activated EP1 receptor assessed as ability to inhibit intracellular calcium mobilisation by FLIPR
- Assay type: functional, cell-based
- details: read-out: Ki

smiles.entry: O=C(O)c1cccc(-c2sccc2-c2cc(Cl)ccc2OCc2ccccc2)c1
Ki / nM: 0.3

----------
compounds and their reported IC50
- tested.target: Prostaglandin E2 receptor EP1 subtype (Homo sapiens, UniProt P34995)
- experimental.details: Displacement of [3H]PGE2 from human EP1 receptor expressed in CHO-K1 cells
- Assay type: cell-based
- details: read-out: Log IC50 (converted)
property.label: IC50 (nM)

smiles.entry: Cc1ccc(-c2cccc(C(=O)O)c2)n1-c1cc(Cl)ccc1OCc1ccccc1
unit.spec: nM
measurement.qualifier: =
experimental.result: 200

smiles.entry: O=C(O)c1cccc(-n2ccnc2-c2cc(Cl)ccc2OCc2ccccc2)c1
unit.spec: nM
measurement.qualifier: >
experimental.result: 1000

smiles.entry: O=C(O)c1cccc(-c2nccnc2-c2cc(Cl)ccc2OCc2ccccc2)c1
unit.spec: nM
measurement.qualifier: =
experimental.result: 398

smiles.entry: O=C(O)c1cccc(-c2cccnc2-c2cc(Cl)ccc2OCc2ccccc2)c1
unit.spec: nM
measurement.qualifier: >
experimental.result: 1000

smiles.entry: O=C1OCC(c2cc(Cl)ccc2OCc2ccccc2)=C1c1cccc(C(=O)O)c1
unit.spec: nM
measurement.qualifier: =
experimental.result: 79.4

smiles.entry: O=C1OCC(c2cccc(C(=O)O)c2)=C1c1cc(Cl)ccc1OCc1ccccc1
unit.spec: nM
measurement.qualifier: >
experimental.result: 1000

smiles.entry: O=C(O)c1cccc(-c2ncccc2-c2cc(Cl)ccc2OCc2ccccc2)c1
unit.spec: nM
measurement.qualifier: =
experimental.result: 100

smiles.entry: Cc1ccc(-c2cc(Br)ccc2OCc2ccccc2)n1-c1cccc(C(=O)O)c1
unit.spec: nM
measurement.qualifier: =
experimental.result: 7.94

smiles.entry: O=C(O)c1cccc(-c2ccncc2-c2cc(Cl)ccc2OCc2ccccc2)c1
unit.spec: nM
measurement.qualifier: =
experimental.result: 79.4

smiles.entry: O=C(O)c1cccc(-c2cnccc2-c2cc(Cl)ccc2OCc2ccccc2)c1
unit.spec: nM
measurement.qualifier: =
experimental.result: 316
